# procedure-details: Stability of compounds in human liver microsomes
# Assay type: in vitro ADME
# measurement-parameters: both sexes, pH 7.4; 0.5 μM compound, 0.5 mg/mL human liver microsomes, 37° C.; maxed at 420 minutes; read-out: HLM Elimination half-life (t1/2, min)
Measured half-life at 0.5 μM of individual entries
Please reply with the bare figure in min and do not write the unit itself.

Use these answered entries as a reference point.
{"entry-smiles": "COc1cc2c(cc1OCc1ccccc1)CCN1C[C@@H](CC(C)(C)C)[C@H](O)C[C@H]21", "measured-metric": "half-life at 0.5 μM", "measured": 37}
{"entry-smiles": "COc1cc2c(cc1OCCOC1(C#N)CCOCC1)CCN1C[C@@H](CC(C)(C)C)[C@H](O)C[C@H]21", "measured-metric": "half-life at 0.5 μM", "measured": 28}

Query block: Find the measured half-life at 0.5 μM of COc1cc2c(cc1OCc1ccc(C#N)o1)CCN1C[C@@H](CC(C)(C)C)[C@H](O)C[C@H]21 and report it.
Result block: 50

Query block: Find the measured half-life at 0.5 μM of COc1cc2c(cc1O[C@H]1CCOC1)CCN1C[C@@H](CC(C)(C)C)[C@H](O)C[C@H]21 and report it.
Result block: 164

Query block: Find the measured half-life at 0.5 μM of COc1cc2c(cc1OCCCCC(F)(F)F)CCN1C[C@@H](CC(C)(C)C)[C@H](O)C[C@H]21 and report it.
Result block: 133

Query block: Find the measured half-life at 0.5 μM of COc1cc2c(cc1OCC1(CC#N)CC1)CCN1C[C@@H](CC(C)(C)C)[C@H](O)C[C@H]21 and report it.
Result block: 28

Query block: Find the measured half-life at 0.5 μM of COc1cc2c(cc1OCc1cccc(F)c1)CCN1C[C@@H](CC(C)(C)C)[C@H](O)C[C@H]21 and report it.
Result block: 33

====

# procedure-details: Stability of compounds in human liver microsomes
# Assay type: in vitro ADME
# measurement-parameters: both sexes, liver microsomes, pH 7.4; calculated from HLM half-life, human; read-out: HLM Scaled Intrinsic Clearance
# Method: A test compound (0.5 μM) was incubated with pooled mixed gender liver microsomes from humans (0.5 mg/mL total protein) at 37° C. in the presence of an NADPH-generating system containing 50 mM, pH 7.4 potassium phosphate buffer, 3 mM magnesium chloride, 1 mM EDTA, 1 mM NADP, 5 mM glusose-6-phosphate, and 1 Unit/mL glucose-6-phosphate dehydrogenase. […] Aliquots of the resulting supernatant fractions were analyzed by LC-MS/MS monitoring for depletion of parent compound. […]
Measured CLint scaled at 0.5 μM of individual entries
Please reply with the bare figure in mL/min/kg and do not write the unit itself.

{"entry-smiles": "CC[C@@H](O)COc1cc2c(cc1OC)[C@H]1C[C@@H](O)[C@H](CC(C)(C)C)CN1CC2", "measured-metric": "CLint scaled at 0.5 μM", "measured": 5.99}
{"entry-smiles": "COc1cc2c(cc1OCCOC1(C#N)CCOCC1)CCN1C[C@@H](CC(C)(C)C)[C@H](O)C[C@H]21", "measured-metric": "CLint scaled at 0.5 μM", "measured": 45.2}

API: the following record is the query input.
Query block: Find the measured CLint scaled at 0.5 μM of COc1cc2c(cc1OCCOC(C)(C)C#N)CCN1C[C@@H](CC(C)(C)C)[C@H](O)C[C@H]21 and report it.
Result block: 26.9

====

# experimental-target: human VMAT2 (Homo sapiens (Human), UniProt Q05940)
# Sequence (Q05940 whole entry): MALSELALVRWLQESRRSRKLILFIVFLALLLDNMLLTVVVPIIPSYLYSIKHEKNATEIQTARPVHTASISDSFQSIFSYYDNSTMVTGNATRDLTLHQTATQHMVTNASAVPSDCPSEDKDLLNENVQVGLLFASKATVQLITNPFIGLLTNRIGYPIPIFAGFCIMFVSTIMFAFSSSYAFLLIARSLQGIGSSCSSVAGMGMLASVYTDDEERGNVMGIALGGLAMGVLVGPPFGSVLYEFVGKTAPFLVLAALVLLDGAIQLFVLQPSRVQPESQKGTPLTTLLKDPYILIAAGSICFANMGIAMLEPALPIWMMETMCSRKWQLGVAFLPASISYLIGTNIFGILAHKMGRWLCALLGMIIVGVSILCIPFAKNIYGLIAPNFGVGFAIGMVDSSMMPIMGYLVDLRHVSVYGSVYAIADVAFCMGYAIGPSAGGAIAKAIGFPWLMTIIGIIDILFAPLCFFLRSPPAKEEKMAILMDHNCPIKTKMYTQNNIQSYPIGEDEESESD
# procedure-details: VMAT2 radioligand binding, 3H-dihydrotetrabenazine competition on human platelet homogenate
# measurement-parameters: 10 nM 3H-dihydrotetrabenazine, human platelet homogenate, 25° C., 90 minutes; read-out: VMAT2 Ki
Lab note: compare Ki with 50 nM, writing t if less and f if equal or more.

# example entries with known answers
{"molecule": "COc1cc2c(cc1OCc1cccc(F)c1)CCN1C[C@@H](CC(C)(C)C)[C@H](O)C[C@H]21", "cat": "t"}
{"molecule": "COc1cc2c(cc1OCC1CCC1)CCN1C[C@@H](CC(C)(C)C)[C@H](O)C[C@H]21", "cat": "t"}
{"molecule": "COc1cc2c(cc1OCC(C)(O)C(F)(F)F)CCN1C[C@@H](CC(C)(C)C)[C@H](O)C[C@H]21 (some centres unmarked)", "cat": "t"}
{"molecule": "COc1cc2c(cc1OC(C)C(F)(F)F)CCN1C[C@@H](CC(C)(C)C)[C@H](O)C[C@H]21 (some centres unmarked)", "cat": "t"}
{"molecule": "COc1cc2c(cc1OC1CCN(CC(F)(F)F)C1=O)CCN1C[C@@H](CC(C)(C)C)[C@H](O)C[C@H]21 (some centres unmarked)", "cat": "f"}
{"molecule": "COc1cc2c(cc1OC[C@H](C)O)CCN1C[C@@H](CC(C)(C)C)[C@H](O)C[C@H]21", "cat": "f"}

Query block: # strict comparison: is reported Ki < 50 nM? input = COc1cc2c(cc1OCC(C)(F)F)CCN1C[C@H](CC(C)(C)C)[C@@H](O)C[C@@H]21
Result block: f

Query block: # strict comparison: is reported Ki < 50 nM? input = COc1cc2c(cc1OCC1(F)CC1)CCN1C[C@@H](CC(C)(C)C)[C@H](O)C[C@H]21
Result block: t

Query block: # strict comparison: is reported Ki < 50 nM? input = COc1cc2c(cc1OCC(=O)N(C)C)CCN1C[C@@H](CC(C)(C)C)[C@H](O)C[C@H]21
Result block: f

Query block: # strict comparison: is reported Ki < 50 nM? input = COc1cc2c(cc1OCCCS(C)(=O)=O)CCN1C[C@@H](CC(C)(C)C)[C@H](O)C[C@H]21
Result block: f

Query block: # strict comparison: is reported Ki < 50 nM? input = COc1cc2c(cc1OCCC(F)(F)F)CCN1C[C@H](CC(C)(C)C)[C@H](O)C[C@@H]21
Result block: f

Query block: # strict comparison: is reported Ki < 50 nM? input = COc1cc2c(cc1OCC(F)(F)Cl)CCN1C[C@@H](CC(C)(C)C)[C@H](O)C[C@H]21
Result block: t

====

# procedure-details: Stability of compounds in human liver microsomes
# Assay type: in vitro ADME
# measurement-parameters: scaled from HLM half-life (Obach method), human
# Protocol: A test compound (0.5 μM) was incubated with pooled mixed gender liver microsomes from humans (0.5 mg/mL total protein) at 37° C. in the presence of an NADPH-generating system containing 50 mM, pH 7.4 potassium phosphate buffer, 3 mM magnesium chloride, 1 mM EDTA, 1 mM NADP, 5 mM glusose-6-phosphate, and 1 Unit/mL glucose-6-phosphate dehydrogenase. […] Aliquots of the resulting supernatant fractions were analyzed by LC-MS/MS monitoring for depletion of parent compound. […]
Lab note: compare HLM Predicted Systemic Clearance with 9 mL/min/kg, writing satisfied if less and not satisfied if equal or more.

{"entry-smiles": "COc1cc2c(cc1OCc1cocn1)CCN1C[C@@H](CC(C)(C)C)[C@H](O)C[C@H]21", "cat": "satisfied"}
{"entry-smiles": "CC[C@@H](O)COc1cc2c(cc1OC)[C@H]1C[C@@H](O)[C@H](CC(C)(C)C)CN1CC2", "cat": "satisfied"}
{"entry-smiles": "COc1cc2c(cc1OC[C@@H](C)O)CCN1C[C@@H](CC(C)(C)C)[C@H](O)C[C@H]21", "cat": "satisfied"}

Query block: # strict comparison: is reported HLM Predicted Systemic Clearance < 9 mL/min/kg? input = CCOc1cc2c(cc1OC)[C@H]1C[C@@H](O)[C@H](CC(C)(C)C)CN1CC2
Result block: not satisfied

Query block: # strict comparison: is reported HLM Predicted Systemic Clearance < 9 mL/min/kg? input = COc1cc2c(cc1OCc1cccc(C#N)n1)CCN1C[C@@H](CC(C)(C)C)[C@H](O)C[C@H]21
Result block: satisfied

Query block: # strict comparison: is reported HLM Predicted Systemic Clearance < 9 mL/min/kg? input = COc1cc2c(cc1OCC1(C(F)F)CC1)CCN1C[C@@H](CC(C)(C)C)[C@H](O)C[C@H]21
Result block: satisfied

====

Measured Predicted Max. Bioavailability (% F) of individual entries
# procedure-details: Stability of compounds in human liver microsomes
# Assay type: in vitro ADME
# measurement-parameters: predicted from HLM data, human
Please reply with the bare figure in % F and do not write the unit itself.

{"entry-smiles": "COc1cc2c(cc1OC)[C@H]1C[C@H](O)[C@H](CC(C)(C)C)CN1CC2", "Predicted Max. Bioavailability (% F)": 38}
{"entry-smiles": "COc1cc2c(cc1OCCCF)CCN1C[C@@H](CC(C)(C)C)[C@H](O)C[C@H]21", "Predicted Max. Bioavailability (% F)": 39}
{"entry-smiles": "COc1cc2c(cc1OCC1(F)CC1)CCN1C[C@@H](CC(C)(C)C)[C@@H](O)C[C@H]21", "Predicted Max. Bioavailability (% F)": 75}

Query block: Find the measured Predicted Max. Bioavailability (% F) of COc1cc2c(cc1OCC1(F)COC1)CCN1C[C@@H](CC(C)(C)C)[C@H](O)C[C@H]21 and report it.
Result block: 59
